Could you please report measured ED50 for the items listed next?
Test system: PAF-induced lethal shock
procedure.text: Effect on PAF-induced lethal shock in mice (p.o.)
Type: in vivo
recorded.conditions: Mus musculus, male ICR mice, 80 μg/kg PAF i.v. 1 hour after oral administration, observed 24 hours
One number for each entry, in mg/kg.

Below, each entry is followed by its recorded ED50 result.
>  <molecule>
Cc1nnc2n1-c1sc(CCC(=O)N3CCOCC3)cc1C(c1ccccc1Cl)=NC2C (stereo not drawn)

>  <ED50 [mg/kg]>
0.065

$$$$
>  <molecule>
CCCN(CCC)C(=O)CCc1cc2c(s1)-n1c(C)nnc1C(C)N=C2c1ccccc1Cl (stereo not drawn)

>  <ED50 [mg/kg]>
0.14

$$$$
>  <molecule>
Cc1nnc2n1-c1sc(CCC(=O)N3CCOCC3)cc1C(c1ccccc1Cl)=NC2 [WEB 2086, reference compound]

>  <ED50 [mg/kg]>
1.6

$$$$
>  <molecule>
Cc1nnc2n1-c1sc3c(c1C(c1ccccc1Cl)=NC2C)CC(CN1CCOCC1)C3 (stereo not drawn) [C, hydrate]

>  <ED50 [mg/kg]>
0.2

$$$$
>  <molecule>
Cc1nnc2n1-c1sc(CCC(=O)N3CCN(CC(C)C)CC3)cc1C(c1ccccc1Cl)=NC2C (stereo not drawn)

>  <ED50 [mg/kg]>
0.3

$$$$

# input for lookup
query: So what ED50 did Cc1nnc2n1-c1sc3c(c1C(c1ccccc1Cl)=NC2C)CC(C(=O)N1CCOCC1)C3 (stereo not drawn) get with PAF-induced lethal shock?
result: 0.55
